Hey, just so you know, these numbers are from the supplement of paper PMC10307832.

tested on: NCI-H2087; experiment: relative viability (nuclei count vs DMSO), 5 days (fraction); higher = more cells survive; details: first compound 0.1265 µM
Catalogue of molecules with associated relative viability

molecule	relative viability
Clc1ccc(Nc2nnc(Cc3ccncc3)c3ccccc23)cc1 [Vatalanib] + CC(=O)c1c(C)c2cnc(Nc3ccc(N4CCNCC4)cn3)nc2n(C2CCCC2)c1=O [Palbociclib] (partner 0.5 µM)	0.209
Clc1ccc(Nc2nnc(Cc3ccncc3)c3ccccc23)cc1 [Vatalanib] + NC(=O)Nc1cc(-c2cccc(F)c2)sc1C(=O)N[C@H]1CCCNC1 [AZD7762] (partner 0.2 µM)	1.25
Clc1ccc(Nc2nnc(Cc3ccncc3)c3ccccc23)cc1 [Vatalanib] + N=C(N)NC(=N)NCCc1ccccc1 [Phenformin] (partner 250 µM)	0.404
C[C@@H]1CN(CC(=O)Nc2ccc3c(c2)Cc2cccc(-c4cc(=O)cc(N5CCOCC5)o4)c2S3)C[C@H](C)O1 + C[C@@H](Oc1cc(-c2cnn(C3CCNCC3)c2)cnc1N)c1c(Cl)ccc(F)c1Cl [Crizotinib] (partner 1 µM)	0.929
C[C@@H]1CN(CC(=O)Nc2ccc3c(c2)Cc2cccc(-c4cc(=O)cc(N5CCOCC5)o4)c2S3)C[C@H](C)O1 + O=C(CCCCCCC(=O)Nc1ccccc1)NO [Vorinostat] (partner 1 µM)	0.587

Problem: Quick check: relative viability of C[C@@H]1CN(CC(=O)Nc2ccc3c(c2)Cc2cccc(-c4cc(=O)cc(N5CCOCC5)o4)c2S3)C[C@H](C)O1 + CC1(C)CCC(c2ccc(Cl)cc2)=C(CN2CCN(c3ccc(C(=O)NS(=O)(=O)c4ccc(N[C@H](CCN5CCOCC5)CSc5ccccc5)c(S(=O)(=O)C(F)(F)F)c4)cc3)CC2)C1 [Navitoclax] (partner 0.5 µM) ?
Result: 1.1

Problem: Fill in the blank: the reported relative viability of COc1cc(N2CCC(C(N)=O)CC2)ccc1Nc1nc(N)c(Cl)c(Nc2ccccc2S(=O)(=O)C(C)C)n1 [HG-5-88-01] + CCNC(=O)c1noc(-c2cc(C(C)C)c(O)cc2O)c1-c1ccc(CN2CCOCC2)cc1 [Luminespib] (partner 0.01 µM) is ____.
Result: 0.228

Problem: What does the record list as relative viability for COc1cc(N2CCC(C(N)=O)CC2)ccc1Nc1nc(N)c(Cl)c(Nc2ccccc2S(=O)(=O)C(C)C)n1 [HG-5-88-01] + Cc1cc(Nc2cc(N3CCN(C)CC3)nc(Sc3ccc(NC(=O)C4CC4)cc3)n2)n[nH]1 [Tozasertib] (partner 0.1 µM) ?
Result: 0.203

Problem: relative viability lookup needed for Clc1ccc(Nc2nnc(Cc3ccncc3)c3ccccc23)cc1 [Vatalanib] + Nc1nc2[nH]cc(CCc3ccc(C(=O)N[C@@H](CCC(=O)O)C(=O)O)cc3)c2c(=O)[nH]1 [Pemetrexed] (partner 0.2 µM) , thanks.
Result: 0.659

Problem: May I ask what relative viability has been recorded for COc1cc(N2CCC(C(N)=O)CC2)ccc1Nc1nc(N)c(Cl)c(Nc2ccccc2S(=O)(=O)C(C)C)n1 [HG-5-88-01] + COc1cccc2cc(-c3nc([C@H]4CC[C@H](C(=O)O)CC4)n4ncnc(N)c34)[nH]c12 [OSI-027] (partner 0.5 µM) ?
Result: 0.542

Problem: Reported relative viability for C[C@@H]1CN(CC(=O)Nc2ccc3c(c2)Cc2cccc(-c4cc(=O)cc(N5CCOCC5)o4)c2S3)C[C@H](C)O1 + Cc1nc(NC(=O)N2CCC[C@H]2C(N)=O)sc1-c1ccnc(C(C)(C)C(F)(F)F)c1 [Alpelisib] (partner 2 µM) : what is it?
Result: 1.2

* * *

system: COR-L 105; test: relative viability (nuclei count vs DMSO), 5 days (fraction); higher = more cells survive; conditions: first compound 1.265 µM
List of relative viability values.
The answer should be written as a number, with no unit following it.

The following compounds have reported results that may help.
compound	property-name	data-value
Clc1ccc(Nc2nnc(Cc3ccncc3)c3ccccc23)cc1 [Vatalanib] + CS(=O)(=O)N1CCN(Cc2cc3nc(-c4cccc5[nH]ncc45)nc(N4CCOCC4)c3s2)CC1 [Pictilisib] (partner 1 µM)	relative viability	0.359
Clc1ccc(Nc2nnc(Cc3ccncc3)c3ccccc23)cc1 [Vatalanib] + O=C(c1cc(Cc2n[nH]c(=O)c3ccccc23)ccc1F)N1CCN(C(=O)C2CC2)CC1 [Olaparib] (partner 8 µM)	relative viability	0.645
Clc1ccc(Nc2nnc(Cc3ccncc3)c3ccccc23)cc1 [Vatalanib] + COc1cc2c(Oc3ccc(NC(=O)C4(C(=O)Nc5ccc(F)cc5)CC4)cc3F)ccnc2cc1OCCCN1CCOCC1 [Foretinib] (partner 0.25 µM)	relative viability	0.785
Clc1ccc(Nc2nnc(Cc3ccncc3)c3ccccc23)cc1 [Vatalanib] + Cc1nc(Nc2ncc(C(=O)Nc3c(C)cccc3Cl)s2)cc(N2CCN(CCO)CC2)n1 [Dasatinib] (partner 0.075 µM)	relative viability	0.316

Proceed to the following item.
Problem: Item Clc1ccc(Nc2nnc(Cc3ccncc3)c3ccccc23)cc1 [Vatalanib] + C[C@]1(O)C[C@@H](c2nc(-c3ccc4ccc(-c5ccccc5)nc4c3)c3c(N)nccn32)C1 [Linsitinib] (partner 1 µM) has what recorded relative viability?
Result: 0.772

* * *

This section presents compounds with their documented relative viability values.
tested on: NCI-H2347; assay: relative viability (nuclei count vs DMSO), 5 days (fraction); higher = more cells survive; conditions: first compound 0.03162 µM
Field format: numeric only.

Some solved cases for reference:
compound	system-tested	relative viability
CC(C)Oc1cc(Nc2nc(N[C@@H](C)c3ccc(F)cn3)ncc2Cl)n[nH]1 [AZ23] + NC(=O)Nc1cc(-c2cccc(F)c2)sc1C(=O)N[C@H]1CCCNC1 [AZD7762] (partner 0.2 µM)	NCI-H2347	0.818
CC(C)Oc1cc(Nc2nc(N[C@@H](C)c3ccc(F)cn3)ncc2Cl)n[nH]1 [AZ23] + O=C(CCCCCCC(=O)Nc1ccccc1)NO [Vorinostat] (partner 1 µM)	NCI-H2347	0.631
CC(C)Oc1cc(Nc2nc(N[C@@H](C)c3ccc(F)cn3)ncc2Cl)n[nH]1 [AZ23] + CC(C)C[C@H](NC(=O)[C@H](Cc1ccccc1)NC(=O)c1cnccn1)B(O)O [Bortezomib] (partner 0.002 µM)	NCI-H2347	1.04

Turning to the following compound.
Problem: Form field: reported relative viability of CC(C)Oc1cc(Nc2nc(N[C@@H](C)c3ccc(F)cn3)ncc2Cl)n[nH]1 [AZ23] + Nc1nc2[nH]cc(CCc3ccc(C(=O)N[C@@H](CCC(=O)O)C(=O)O)cc3)c2c(=O)[nH]1 [Pemetrexed] (partner 0.2 µM)
Result: 0.412

* * *

test system: NCI-H1666; experiment: relative viability (nuclei count vs DMSO), 5 days (fraction); higher = more cells survive; details: first compound 2.53 µM
property-name: relative viability
// no unit string in output, number only

Example cases with answers are listed next.
compound	system-tested	relative viability
CCCCCCCCCCCC1=C(O)C(=O)C=C(O)C1=O [Embelin] + Nc1nc2[nH]cc(CCc3ccc(C(=O)N[C@@H](CCC(=O)O)C(=O)O)cc3)c2c(=O)[nH]1 [Pemetrexed] (partner 0.2 µM)	NCI-H1666	0.849
CCCCCCCCCCCC1=C(O)C(=O)C=C(O)C1=O [Embelin] + O=C(CCCCCCC(=O)Nc1ccccc1)NO [Vorinostat] (partner 1 µM)	NCI-H1666	1.09
CCCCCCCCCCCC1=C(O)C(=O)C=C(O)C1=O [Embelin] + COc1cccc2cc(-c3nc([C@H]4CC[C@H](C(=O)O)CC4)n4ncnc(N)c34)[nH]c12 [OSI-027] (partner 0.5 µM)	NCI-H1666	0.871
CCCCCCCCCCCC1=C(O)C(=O)C=C(O)C1=O [Embelin] + Cc1cc(Nc2cc(N3CCN(C)CC3)nc(Sc3ccc(NC(=O)C4CC4)cc3)n2)n[nH]1 [Tozasertib] (partner 0.1 µM)	NCI-H1666	0.639
CCCCCCCCCCCC1=C(O)C(=O)C=C(O)C1=O [Embelin] + CC1(C)CCC(c2ccc(Cl)cc2)=C(CN2CCN(c3ccc(C(=O)NS(=O)(=O)c4ccc(N[C@H](CCN5CCOCC5)CSc5ccccc5)c(S(=O)(=O)C(F)(F)F)c4)cc3)CC2)C1 [Navitoclax] (partner 0.5 µM)	NCI-H1666	0.995

Now take the following compound into account.
Problem: GET /values?readout=relative viability&system=NCI-H1666&item= CCCCCCCCCCCC1=C(O)C(=O)C=C(O)C1=O [Embelin] + CS(=O)(=O)N1CCN(Cc2cc3nc(-c4cccc5[nH]ncc45)nc(N4CCOCC4)c3s2)CC1 [Pictilisib] (partner 1 µM)
Result: 0.365

* * *

test system: PC-3 [JPC-3]; assay: relative viability (nuclei count vs DMSO), 5 days (fraction); higher = more cells survive; details: first compound 0.04 µM
Reported relative viability values for a set of compounds
Answer with the value's number alone.

Problem: Name the recorded relative viability for Clc1ccc(Nc2nnc(Cc3ccncc3)c3ccccc23)cc1 [Vatalanib] + C[C@@H](Oc1cc(-c2cnn(C3CCNCC3)c2)cnc1N)c1c(Cl)ccc(F)c1Cl [Crizotinib] (partner 1 µM) .
Result: 0.978

Problem: Form field: reported relative viability of COc1cc(N2CCC(C(N)=O)CC2)ccc1Nc1nc(N)c(Cl)c(Nc2ccccc2S(=O)(=O)C(C)C)n1 [HG-5-88-01] + O=C(c1cc(Cc2n[nH]c(=O)c3ccccc23)ccc1F)N1CCN(C(=O)C2CC2)CC1 [Olaparib] (partner 8 µM)
Result: 1.15

Problem: Bench note: what relative viability did C[C@@H]1CN(CC(=O)Nc2ccc3c(c2)Cc2cccc(-c4cc(=O)cc(N5CCOCC5)o4)c2S3)C[C@H](C)O1 + Cc1nc(Nc2ncc(C(=O)Nc3c(C)cccc3Cl)s2)cc(N2CCN(CCO)CC2)n1 [Dasatinib] (partner 0.075 µM) show?
Result: 0.983

Problem: // returns reported relative viability for input COc1cc(N2CCC(C(N)=O)CC2)ccc1Nc1nc(N)c(Cl)c(Nc2ccccc2S(=O)(=O)C(C)C)n1 [HG-5-88-01] + Nc1ncn([C@H]2C[C@H](O)[C@@H](CO)O2)c(=O)n1 [Decitabine] (partner 2 µM)
Result: 0.762
